Kindly state melting point for each of the entries shown.

Guide cases for melting point, answers given:
- compound: "NC(=O)N1c2ccccc2C=C([N+](=O)[O-])c2ccccc21"
  observedValue: "208 to 212 °C"
- compound: "Cc1ccc2c(c1)C(=O)c1ccc(C(N)=O)cc1S2(=O)=O"
  observedValue: "305 °C"
- compound: "O=c1[nH]c2ccc(CCN3CCN(c4ccc5ncccc5c4)CC3)cc2o1"
  observedValue: "200 °C"
- compound: "O=c1cc(-c2ccccc2)nc2ccn(-c3ccccc3)n12"
  observedValue: "194 to 200 °C"
- compound: "CN1C(=O)C(C#N)(c2ccc(OCC3CO3)cc2)Sc2ccccc21 (stereo not given)"
  observedValue: "136 to 139 °C"
- compound: "CC(CN1CC(=O)N(CN2CCSCC2)C(=O)C1)N1CC(=O)NC(=O)C1 (stereo not given)"
  observedValue: "206 to 208 °C"

Please give melting point for each item listed below.
1. CCOC(=O)COc1cccc(Cl)c1
2. NC(=O)c1cc(OC(F)(F)F)ccc1O
3. Brc1ccc2c(c1)CN(Cc1c[nH]c3ccccc13)C2
4. COc1cc(-c2cnc3[nH]cc(C(=O)C4(C)CCC(O)CC4)c3n2)cc(OC)c1OC (stereo not given)

1: 39 to 40 °C; 2: 188 to 190 °C; 3: 188 to 190 °C; 4: 242 to 244 °C

###

Give measured melting point for each item. Keep answers brief.

Examples with their reported melting point follow.
- compound: "CCOC(OCC)[C@@H]1CCCN1C(=O)[C@@H]1CCCN1C(=O)OCc1ccccc1"
  melting point: "58.5 to 61 °C"
- compound: "CC(=NNC(N)=O)c1ccc2nnn(Cc3ccc4ncccc4c3)c2n1"
  melting point: "249 to 250 °C"
- compound: "COc1ccc(C(=O)Nc2cccc3[nH]ccc23)c(O)c1"
  melting point: "190 °C"
- compound: "CC(C)NC(C)CCc1nc(Cn2cnc3c2c(=O)n(C)c(=O)n3C)no1 (stereo not given)"
  melting point: "55 to 61 °C"

Quick one: melting point for O=C(/C=C/c1ccc(N2CCOCC2)cc1)CC(=O)/C=C/c1ccc2cc[nH]c2c1 ?
93 to 97 °C

###

Kindly state melting point for each of the entries shown.

- molecule: "COC(=O)C1CC(c2ccc(OC)c(OC)c2)=NO1 (stereo unspecified)"
  melting point: "106 to 108 °C"
- molecule: "N#CCCn1nc(-c2ccc(OCc3ccccc3)cc2)oc1=O"
  melting point: "136 °C"
- molecule: "CC(=O)ONC(=N)c1ccc(-c2ccc(-c3ccc(C(=N)NOC(C)=O)cc3C)o2)nc1"
  melting point: "226 to 229 °C"
- molecule: "NCC(=O)NCCCn1cc(-c2ccccc2)c2ccccc2c1=O"
  melting point: "141 °C"
- molecule: "O=C(NO)C1C2CCC(CC2)C1S(=O)(=O)c1ccc(Oc2ccccc2)cc1 (stereo unspecified)"
  melting point: "89.9 to 91.8 °C"

I would be grateful if you could provide melting point for each of the following entries.
1. O[C@@H]1CN=C(c2ccccc2F)O[C@H]1c1ccccc1 (racemic)
2. Cc1cc(C)c(S(=O)(=O)NC(C)CS)c(C)c1 (stereo unspecified)
3. CCN(CC)c1ccc(C2(N(c3ccccc3)c3ccc(NC(C)=O)cc3)OC(=O)c3ccccc32)c(C)c1 (stereo unspecified)
4. COc1cccc(-n2c(=O)[nH]c3c(C(N)=O)nc(-c4cccc(O)c4)nc32)c1F
5. Cc1ccc(-c2ccc(S(=O)(=O)Nc3onc(C)c3Br)s2)cc1
6. O=C(O)c1cccc2c1S(=O)(=O)c1ccccc1C2=O
7. CC1(CO)C(O)CCC2(C)C1CCC1CC3CC12CCC3(O)CO (stereo unspecified)
8. CCNS(=O)(=O)c1nc2cc(C(=O)c3ccccc3)ccc2[nH]1

["142 °C", "74 to 76 °C", "169 to 171 °C", "> 260 °C", "175 °C", "237 °C", "290 to 300 °C", "250 to 253 °C"]

Each molecule below has a reported value. Please supply its melting point.
1. CCOC(=O)C1=CC2(CCC1S(=O)(=O)Nc1ccc(F)cc1Cl)OC1COCC1O2 (stereo unspecified)
2. CC(C)(C)OC(=O)N1CCc2c(/C=C/[N+](=O)[O-])c3ccccc3n2CC1
3. Nc1ncnc2c1nc(OC(=O)OCc1ccccc1)n2Cc1ccccc1
4. CC1=NN=C(c2ccc([N+](=O)[O-])cc2)c2cc(Cl)c(Cl)cc2C1
5. Nc1cnnc(Cl)c1Cl
6. O=C(O)CO[C@@H]1COc2nc([N+](=O)[O-])cn2C1

1: 227 to 228 °C; 2: 227 to 230 °C; 3: > 300 °C; 4: 231 to 233 °C; 5: 150 to 151 °C; 6: 178 to 179 °C

Here are 2 molecules. What values of melting point were reported for them?
1. O=C1C(c2ccc(O)cc2)=C(Br)c2ccc(O)cc21
2. CN(c1cccc2cc(C3=NCC(C)(CCN4CCOCC4)S3)[nH]c12)S(=O)(=O)c1cccs1 (stereo unspecified)

1: 240 °C; 2: 154 to 155 °C

###

experimentalReadout: melting point

Record excerpt, results attached:
- compound: "CC(C)(C)c1ccc(OCC(O)CN2CCCC3(CSC4=C(O3)c3ccccc3C(=O)C4=O)C2)cc1 (stereo not given)"
  experimentalReadout: "melting point"
  observedValue: "90 to 92 °C"
- compound: "COc1c(C)cccc1C(=O)O"
  experimentalReadout: "melting point"
  observedValue: "70 to 75 °C"
- compound: "C#CCNC(=O)c1cc(C(=O)OC)c(O)c2ncc(Cc3ccc(F)cc3)cc12"
  experimentalReadout: "melting point"
  observedValue: "192 to 193 °C"
- compound: "CCC=CC(c1cc(F)ccc1F)S(=O)(=O)c1ccc(Cl)cc1 (stereo not given)"
  experimentalReadout: "melting point"
  observedValue: "99 to 100 °C"
- compound: "CN(C)c1nc(CSCCNC2=NS(=O)N=C2N)cs1 (stereo not given)"
  experimentalReadout: "melting point"
  observedValue: "116 to 122 °C"
- compound: "CCOCCOc1c(C)cc(Oc2ccc3c(c2)C=C(C(=O)Nc2ccc(CN(C)C4CCOCC4)cc2)CCS3(=O)=O)cc1C"
  experimentalReadout: "melting point"
  observedValue: "111 to 113 °C"
- compound: "CC(O)(Cc1ccc(C#N)cc1)Cc1ccc(C#N)cc1"
  experimentalReadout: "melting point"
  observedValue: "147 to 148 °C"
- compound: "CON=C(C(=O)O)c1csc(=N)n1O"
  experimentalReadout: "melting point"
  observedValue: "209 to 210 °C"

Give melting point for each listed item.
1. Cc1cc(CSCCNC(=C[N+](=O)[O-])NCCc2cccc(O)c2)sc1CN(C)C
2. COC(=O)c1ccc2c(nc(C)n2C)c1C(=O)OC

114 to 115 °C
205 to 208 °C

###

Can you tell me melting point for the items I'm about to list?

- molecule: "CC(=NO)c1nc(N)nc(N)c1-c1ccc(Cl)cc1"
  melting point: "256 to 259 °C"
- molecule: "O=C(OC(c1ccccc1)c1ccccc1)C(NC=S)c1ccccc1 (centres undefined)"
  melting point: "129 to 130 °C"
- molecule: "CC(C)OC(=O)Cn1c(=O)n(C)c(=O)n(-c2cc(N=c3sc(=S)n4n3CCCCC4)c(F)cc2Cl)c1=O"
  melting point: "108 to 118 °C"
- molecule: "COC(=O)CCCc1cc2nc(Cl)ccc2n1S(=O)(=O)c1ccc(F)c(F)c1"
  melting point: "96 to 98 °C"
- molecule: "O=C1NC(C(=O)N2CCN3C(=O)OC(c4ccccc4)(c4ccccc4)C3C2)c2ccccc21 (centres undefined)"
  melting point: "227 to 228 °C"

Take each entry in turn and give its melting point.
1. CN1CCC(=C2c3ccccc3CC(=O)c3ccccc32)CC1
2. COc1cccc(C2(CNC(=O)Nc3c(C(C)C)cc(N)cc3C(C)C)CCN(c3ccccc3O)CC2)c1

138 to 140 °C
207 to 208 °C

Please give melting point for each item listed below.
1. Cc1nc(-c2ccc(C(F)(F)F)cc2)oc1COc1ccc(CC(=O)O)cc1Cl
2. Cc1cccc(C)c1N1CCCN(c2c(C)cccc2C)C1=N

["189 to 191 °C", "68 to 71 °C"]

###

Exercise: state measured melting point for each of the molecules provided.

Take a look at these entries with their results.
- molecule: "O=C(CCCCCCCCCCS(=O)c1ccccc1[N+](=O)[O-])OCc1ccccc1 (centres undefined)"
  melting point: "37 to 38 °C"
- molecule: "COc1ccc(-c2nc(C(=O)OC(C)C)cc(Cl)c2Cl)cc1"
  melting point: "113 to 116 °C"
- molecule: "CSc1ccc(C2=C(Cl)C(=O)OC2)cc1"
  melting point: "156 to 158 °C"
- molecule: "O=C(Nc1cccc2c1C(=O)c1c-2n[nH]c1-c1ccc(C(=O)NN2CCCCC2)s1)NN1CCOCC1"
  melting point: "189 to 191 °C"
- molecule: "CC[C@H](N)C(=O)N1c2ccccc2C[C@H]1C(=O)NC"
  melting point: "138 to 139 °C"

Lab note: each molecule below needs its melting point filled in.
1. CCC1(CC)COC(c2cccc(NC(=O)NC)c2)OC1
2. Cn1cc(C(=O)O)c(Nc2ccc(F)cc2F)cc1=O
3. O=C(O)c1ccc(Cl)c2c1NCCS2
4. N#Cc1ccc(-c2cc3c(n2-c2ccc(O)c(C(=O)O)c2)CCCC3)cc1
5. CCc1nc2c(NC(=O)c3ccccc3)nc3ccccc3c2n1CCCCNS(C)(=O)=O

112 to 125 °C
253 to 255 °C
220 °C
242 to 244 °C
249 to 250 °C
